The origin of these recorded values is patent US20140213531A1.

molecular target: Trypsin, Iodination grade, from human pancreas (human, UniProt P07477 24-247); test: cell-based or functional assay
Bridges are numbered along the chain shown (N, C = ends). [ ]: non-standard residue; d: D form. Pro(5R-Ph) = O=C(O)[C@@H]1CC[C@H](c2ccccc2)N1
# % inhibition at 100 µM values compiled below
Quick reminder: number only, in %, skip the unit.

{"Binder": "ICTKSDPPXCR (HELM PEPTIDE1{I.C.T.K.S.D.P.P.[Cha].C.R.[dP].P}$PEPTIDE1,PEPTIDE1,2:R3-10:R3|PEPTIDE1,PEPTIDE1,1:R1-13:R2$$$V2.0; SMILES CC[C@H](C)[C@@H]1NC(=O)[C@@H]2CCCN2C(=O)[C@H]2CCCN2C(=O)[C@H](CCCNC(=N)N)NC(=O)[C@@H]2CSSC[C@H](NC1=O)C(=O)N[C@@H]([C@@H](C)O)C(=O)N[C@@H](CCCCN)C(=O)N[C@@H](CO)C(=O)N[C@@H](CC(=O)O)C(=O)N1CCC[C@H]1C(=O)N1CCC[C@H]1C(=O)N[C@@H](CC1CCCCC1)C(=O)N2) [Example 58]", "% inhibition at 100 µM / %": 97}
{"Binder": "FCTKSDPPICS (HELM PEPTIDE1{F.C.T.K.S.D.P.P.I.C.S.[dP].P}$PEPTIDE1,PEPTIDE1,2:R3-10:R3|PEPTIDE1,PEPTIDE1,1:R1-13:R2$$$V2.0; SMILES CC[C@H](C)[C@@H]1NC(=O)[C@@H]2CCCN2C(=O)[C@@H]2CCCN2C(=O)[C@H](CC(=O)O)NC(=O)[C@H](CO)NC(=O)[C@H](CCCCN)NC(=O)[C@H]([C@@H](C)O)NC(=O)[C@@H]2CSSC[C@H](NC1=O)C(=O)N[C@@H](CO)C(=O)N1CCC[C@@H]1C(=O)N1CCC[C@H]1C(=O)N[C@@H](Cc1ccccc1)C(=O)N2) [Example 4]", "% inhibition at 100 µM / %": 96}
{"Binder": "XCTKSDPPICS (HELM PEPTIDE1{[O=C([C@@H](N[*:1])C1CCCCC1)[*:2]].C.T.K.S.D.P.P.I.C.S.[dP].P}$PEPTIDE1,PEPTIDE1,2:R3-10:R3|PEPTIDE1,PEPTIDE1,1:R1-13:R2$$$V2.0; SMILES CC[C@H](C)[C@@H]1NC(=O)[C@@H]2CCCN2C(=O)[C@@H]2CCCN2C(=O)[C@H](CC(=O)O)NC(=O)[C@H](CO)NC(=O)[C@H](CCCCN)NC(=O)[C@H]([C@@H](C)O)NC(=O)[C@@H]2CSSC[C@H](NC1=O)C(=O)N[C@@H](CO)C(=O)N1CCC[C@@H]1C(=O)N1CCC[C@H]1C(=O)N[C@@H](C1CCCCC1)C(=O)N2) [Example 11]", "% inhibition at 100 µM / %": 6.5}

Would you kindly look at the next entry?
Data request: What value of measured % inhibition at 100 µM is listed for cyclo(FCTKSDPPICS[dP][Pro(5R-Ph)]) (disulfide 2-10) [Example 48] ?
Data returned: 93
